protein stability index: recorded values
B1: FOXJ1 (parent)
chain: SAIYKWITDNFCYFRHADPTWQNS

Variants of: B1
Protocol: protein stability index of a GFP-peptide fusion (GPS, HEK-293T) (PSI 1-6); higher = more stable;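 note: lentivirally expressed fusions sorted by FACS into six bins by GFP to DsRed ratio, PSI derived from sequencing read proportions per bin multiplied by bin number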
Condition Details: c terminus: a fixed tail appended
// no unit, no text: just the number

mutant_name=T8E quantity_measured="protein stability index" observed=2.79
mutant_name=D18H quantity_measured="protein stability index" observed=4.66
mutant_name=N10G quantity_measured="protein stability index" observed=1.42

Entry A2P — recorded protein stability index = 3.53
